B1: SAM and SH3 domain-containing protein 1, residues 630 to 700; numbered along this chain, O94885 (parent)
chain: GRPPQPKSVEDLLDRINLKEHMPTFLFNGYEDLDTFKLLEEEDLDELNIRDPEHRAVLLTAVELLQEYDSN

Variants of: B1
method.notes: abundance fitness (aPCA) (normalised: wild type 0, dead -1); higher = more abundant; growth selection in yeast, the domain comes from the species named
condition.context: Homo sapiens
Label criterion met when abundance fitness is at or above -0.6; anything below gets criterion not met.

Evaluate L44F : abundance fitness at minimum -0.6? criterion met

Evaluate L47K : abundance fitness at minimum -0.6? criterion not met

Evaluate L64M : abundance fitness at minimum -0.6? criterion met

Evaluate L18M : abundance fitness at minimum -0.6? criterion met

Evaluate I49A : abundance fitness at minimum -0.6? criterion not met

Evaluate L65I : abundance fitness at minimum -0.6? criterion met

Evaluate S8K : abundance fitness at minimum -0.6? criterion not met

Evaluate Q5R : abundance fitness at minimum -0.6? criterion met

Evaluate D51Y : abundance fitness at minimum -0.6? criterion not met

Evaluate A56L : abundance fitness at minimum -0.6? criterion met

Evaluate N48E : abundance fitness at minimum -0.6? criterion met

Evaluate D43A : abundance fitness at minimum -0.6? criterion met

Evaluate E67K : abundance fitness at minimum -0.6? criterion met

Evaluate P3Y : abundance fitness at minimum -0.6? criterion met

Evaluate D34S : abundance fitness at minimum -0.6? criterion met

Evaluate S8F : abundance fitness at minimum -0.6? criterion not met

Evaluate L58N : abundance fitness at minimum -0.6? criterion met

Evaluate L18G : abundance fitness at minimum -0.6? criterion not met

Evaluate E41A : abundance fitness at minimum -0.6? criterion met

Evaluate E31V : abundance fitness at minimum -0.6? criterion met

Evaluate L12S : abundance fitness at minimum -0.6? criterion not met

Evaluate G29C : abundance fitness at minimum -0.6? criterion not met

Evaluate L38K : abundance fitness at minimum -0.6? criterion met

Evaluate E41R : abundance fitness at minimum -0.6? criterion met

Evaluate K19H : abundance fitness at minimum -0.6? criterion met

Evaluate I49L : abundance fitness at minimum -0.6? criterion not met

Evaluate L18K : abundance fitness at minimum -0.6? criterion not met

Evaluate A56M : abundance fitness at minimum -0.6? criterion met

Evaluate L33M : abundance fitness at minimum -0.6? criterion not met

Evaluate G29V : abundance fitness at minimum -0.6? criterion not met

Evaluate L64H : abundance fitness at minimum -0.6? criterion met

Evaluate E42Y : abundance fitness at minimum -0.6? criterion met

Evaluate V57G : abundance fitness at minimum -0.6? criterion met

Evaluate P52C : abundance fitness at minimum -0.6? criterion met

Evaluate L59W : abundance fitness at minimum -0.6? criterion not met

Evaluate N28Y : abundance fitness at minimum -0.6? criterion met

Evaluate L47D : abundance fitness at minimum -0.6? criterion not met

Evaluate N17A : abundance fitness at minimum -0.6? criterion met

Evaluate N71R : abundance fitness at minimum -0.6? criterion met

Evaluate L64F : abundance fitness at minimum -0.6? criterion met

Evaluate T60W : abundance fitness at minimum -0.6? criterion met

Evaluate E42G : abundance fitness at minimum -0.6? criterion met

Evaluate D14R : abundance fitness at minimum -0.6? criterion met

Evaluate A61Q : abundance fitness at minimum -0.6? criterion met

Evaluate I49R : abundance fitness at minimum -0.6? criterion not met

Evaluate L65R : abundance fitness at minimum -0.6? criterion not met
